molecular target: murine DLL4 (murine) (UniProt Q9JI71); experiment: Biacore (SPR), DVD-Ig and muDLL4
# pKd per record follows
// pKd here means minus log10 of the molar concentration (mol/L)

[[record]]
binder = "h1A11.1-B9-S2-SS-Anti-VEGF DVD-Ig (bispecific antibody, part only; not given: anti-VEGF domains, h1A11.1 VL, constant regions, part only) heavy, part: EVQLVESGGGLVQPGGSLRLSCAASGFTFSHFPMAWVRQAPGKGLEWVASISSSDSTTNYRDSVKGRFTISRDNAKNSLYLQMNSLRAEDTAVYYCARGYYNSPFAYWGQGTLVTVSSASTKGP light, part: TVAAP"
experimental_value = 8.91

[[record]]
binder = "h1A11.1-A10-S3-SS-Anti-VEGF DVD-Ig (bispecific antibody, part only; not given: anti-VEGF domains, h1A11.1 VL, constant regions, part only) heavy, part: EVQLVESGGGLVQPGGSLRLSCAASGFTFRHFPMAWVRQAPGKGLEWVASISSSDGTSNYRDSVKGRFTISRDNAKSSLYLQMNSLRAEDTAVYYCARGYYNSPFAYWGQGTLVTVSSASTKGP light, part: TVAAP"
experimental_value = 9.11

[[record]]
binder = "h1A11.1-F7-S2-SS-Anti-VEGF DVD-Ig (bispecific antibody, part only; not given: anti-VEGF domains, h1A11.1 VL, constant regions, part only) heavy, part: EVQLVESGGGLVQPGGSLRLSCAASGFTFRHFPMTWVRQAPGKGLEWVASISSSDGTINYRDSVKGRFTISRDNAKNSLYLQMNSLRAEDTAVYYCARGYYNSPFAYWGQGTLVTVSSASTKGP light, part: TVAAP"
experimental_value = 9.44

[[record]]
binder = "h1A11.1-A04-S3-SS-Anti-VEGF DVD-Ig (bispecific antibody, part only; not given: anti-VEGF domains, h1A11.1 VL, constant regions, part only) heavy, part: EVQLVESGGGLVQPGGSLRLSCAASGFTFRHFPMAWVRQAPGKGLEWVATISSSDGATYYRDSVKGRFTISRDNAKSSLYLQMNSLRAEDTAVYYCARGYYNSPFAYWGQGTLVTVSSASTKGP light, part: TVAAP"
experimental_value = 9.35

[[record]]
binder = "h1A11.1-H3-S2-SS-Anti-VEGF DVD-Ig (bispecific antibody, part only; not given: anti-VEGF domains, h1A11.1 VL, constant regions, part only) heavy, part: EVQLVESGGGLVQPGGSLRLSCAASGFTFRNFPMAWVRQAPGKGLEWVASISSSDGTTNYRDSVKGRFTISRDNAKSSLYLQMNSLRAEDTAVYYCARGYYNSPFAYWGQGTLVTVSSASTKGP light, part: TVAAP"
experimental_value = 8.83


Now take the following binder into account.
pKd recorded for this binder, h1A11.1-G7-S2-SS-Anti-VEGF DVD-Ig (bispecific antibody, part only; not given: anti-VEGF domains, h1A11.1 VL, constant regions, part only) heavy, part: EVQLVESGGGLVQPGGSLRLSCAASGFTFNHFPMAWVRQAPGKGLEWVATISSSDWTPYYRDSVKGRFTISRDNAKNSLYLQMNSLRAEDTAVYYCARGYYNSPFAYWGQGTLVTVSSASTKGP light, part: TVAAP , is 8.80
